Where these numbers come from: patent US20260069656A1

Overview of recorded Half-life for various molecules
experiment: Intact half-life during simulated gastric fluid (SGF) digestion; settings: purified proteins, chip electrophoresis, SGF

# Molecule, Half-life
measured = [
    ("SEQID-00510: nutritive polypeptide naturally produced in Turkey, recombinantly expressed in E. coli (protein, Meleagris gallopavo, nutritive polypeptide naturally produced in Turkey, recombinantly expressed in E. coli) MVPIAEKMAEKQEEPSNTQNGEPDNAEEGEGKKKKKVKREDLPPFEIVTGERLPAIFFKFQFRNVEYSSGRNKTFLCYVVETQGKESTTSRGYLEDEHAASHAEIAFFNTILPKCESSLRYNITWYVSSSPCVTCADRISETLRKNKNLRLTIMVGRLFMWEEPEMQAALKKMKSAGCKLRIMKPQDFEYVWQNFVEQEEGEEAKAFVPWEDIQENFQYYEEKLAEILQ", "18 s"),
    ("SEQID-00610: protein of the 168 nutritive polypeptide library (protein, listed as Saccharomyces cerevisiae, strain ATCC 204508 / S288c, protein of the 168 nutritive polypeptide library) MVLEATVLVIDNSEYSRNGDFPRTRFEAQIDSVEFIFQAKRNSNPENTVGLISGAGANPRVLSTFTAEFGKILAGLHDTQIEGKLHMATALQIAQLTLKHRQNKVQHQRIVAFVCSPISDSRDELIRLAKTLKKNNVAVDIINFGEIEQNTELLDEFIAAVNNPQEETSHLLTVTPGPRLLYENIASSPIILEEGSSGMGAFGGSGGDSDANGTFMDFGVDPSMDPELAMALRLSMEEEQQRQERLRQQQQQQDQPEQSEQPEQHQDK", "24 s"),
    ("SEQID-00502: protein of the 168 nutritive polypeptide library (protein, Glycine max, protein of the 168 nutritive polypeptide library) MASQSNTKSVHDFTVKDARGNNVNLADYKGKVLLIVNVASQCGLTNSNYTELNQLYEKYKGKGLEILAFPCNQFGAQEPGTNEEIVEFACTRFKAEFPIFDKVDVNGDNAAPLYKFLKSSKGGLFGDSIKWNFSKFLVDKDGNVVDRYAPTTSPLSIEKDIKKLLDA", "36 s"),
]
